# System: Mycobacterium tuberculosis
# assayOverview: Antitubercular activity against Mycobacterium tuberculosis H37Rv assessed as reduction in microbial growth incubated for 10 days under anaerobic condition followed by 28 hrs incubation with aerobic condition further incubated 7 days at 5 % CO2 condition by low-oxygen recovery assay
# Type: functional
# conditionNotes: time 436 hrs
propertyLabel: log10 of MIC (log10 of the value in µM)

compound	testedOn	propertyLabel	endpointResult
Cc1ccc(NC(=O)c2c(C)[n+]([O-])c3ccc(C(=O)OCC(C)C)cc3[n+]2[O-])c(C)c1	Mycobacterium tuberculosis	log10 of MIC	1.09
CCCCOC(=O)c1ccc2c(c1)[n+]([O-])c(C(=O)Nc1ccccc1)c(-c1ccccc1)[n+]2[O-]	Mycobacterium tuberculosis	log10 of MIC	0.99
CC(=O)c1c(C)[n+]([O-])c2ccc(C(=O)OCC(C)C)cc2[n+]1[O-]	Mycobacterium tuberculosis	log10 of MIC	0.26
CCCCOC(=O)c1ccc2c(c1)[n+]([O-])c(C(=O)c1ccccc1)c(C(F)(F)F)[n+]2[O-]	Mycobacterium tuberculosis	log10 of MIC	-0.06
CCCCOC(=O)c1ccc2c(c1)[n+]([O-])c(C(=O)c1ccc3ccccc3c1)c(C(F)(F)F)[n+]2[O-]	Mycobacterium tuberculosis	log10 of MIC	0.48
CCCCOC(=O)c1ccc2c(c1)[n+]([O-])c(C(=O)OCc1ccccc1)c(C)[n+]2[O-]	Mycobacterium tuberculosis	log10 of MIC	0.24
CC(C)COC(=O)c1ccc2c(c1)[n+]([O-])c(C(=O)c1cccs1)c(C(F)(F)F)[n+]2[O-]	Mycobacterium tuberculosis	log10 of MIC	-0.11
Cc1c(C(=O)Nc2ccc(Cl)cc2)[n+]([O-])c2cc(C(=O)OCC(C)C)ccc2[n+]1[O-]	Mycobacterium tuberculosis	log10 of MIC	0.27
CC(C)COC(=O)c1ccc2c(c1)[n+]([O-])c(C(=O)c1ccccc1)c(C(F)(F)F)[n+]2[O-]	Mycobacterium tuberculosis	log10 of MIC	-0.04
CCCCOC(=O)c1ccc2c(c1)[n+]([O-])c(C(=O)OCC)c(C)[n+]2[O-]	Mycobacterium tuberculosis	log10 of MIC	0.80
COC(=O)c1c(C)[n+]([O-])c2ccc(C(=O)OCC(C)C)cc2[n+]1[O-]	Mycobacterium tuberculosis	log10 of MIC	0.30
CO[C@H]1/C=C/O[C@@]2(C)Oc3c(C)c(O)c4c(O)c(c(/C=N/N5CCN(C)CC5)c(O)c4c3C2=O)NC(=O)/C(C)=C\C=C\[C@H](C)[C@H](O)[C@@H](C)[C@@H](O)[C@@H](C)[C@H](OC(C)=O)[C@@H]1C [RIFAMPIN]	Mycobacterium tuberculosis	log10 of MIC	-1.22

The measured values listed here are drawn from ChEMBL document CHEMBL5576155.
